Quick reference: Activity of TRPA1 with peptide, expressed as a percentage of the reference compound of the listed items.
# targetUnderTest: TRPA1 (Homo sapiens, UniProt O75762)
# Construct: host or cells: HEK293 or CHO
# Sequence (O75762 whole entry): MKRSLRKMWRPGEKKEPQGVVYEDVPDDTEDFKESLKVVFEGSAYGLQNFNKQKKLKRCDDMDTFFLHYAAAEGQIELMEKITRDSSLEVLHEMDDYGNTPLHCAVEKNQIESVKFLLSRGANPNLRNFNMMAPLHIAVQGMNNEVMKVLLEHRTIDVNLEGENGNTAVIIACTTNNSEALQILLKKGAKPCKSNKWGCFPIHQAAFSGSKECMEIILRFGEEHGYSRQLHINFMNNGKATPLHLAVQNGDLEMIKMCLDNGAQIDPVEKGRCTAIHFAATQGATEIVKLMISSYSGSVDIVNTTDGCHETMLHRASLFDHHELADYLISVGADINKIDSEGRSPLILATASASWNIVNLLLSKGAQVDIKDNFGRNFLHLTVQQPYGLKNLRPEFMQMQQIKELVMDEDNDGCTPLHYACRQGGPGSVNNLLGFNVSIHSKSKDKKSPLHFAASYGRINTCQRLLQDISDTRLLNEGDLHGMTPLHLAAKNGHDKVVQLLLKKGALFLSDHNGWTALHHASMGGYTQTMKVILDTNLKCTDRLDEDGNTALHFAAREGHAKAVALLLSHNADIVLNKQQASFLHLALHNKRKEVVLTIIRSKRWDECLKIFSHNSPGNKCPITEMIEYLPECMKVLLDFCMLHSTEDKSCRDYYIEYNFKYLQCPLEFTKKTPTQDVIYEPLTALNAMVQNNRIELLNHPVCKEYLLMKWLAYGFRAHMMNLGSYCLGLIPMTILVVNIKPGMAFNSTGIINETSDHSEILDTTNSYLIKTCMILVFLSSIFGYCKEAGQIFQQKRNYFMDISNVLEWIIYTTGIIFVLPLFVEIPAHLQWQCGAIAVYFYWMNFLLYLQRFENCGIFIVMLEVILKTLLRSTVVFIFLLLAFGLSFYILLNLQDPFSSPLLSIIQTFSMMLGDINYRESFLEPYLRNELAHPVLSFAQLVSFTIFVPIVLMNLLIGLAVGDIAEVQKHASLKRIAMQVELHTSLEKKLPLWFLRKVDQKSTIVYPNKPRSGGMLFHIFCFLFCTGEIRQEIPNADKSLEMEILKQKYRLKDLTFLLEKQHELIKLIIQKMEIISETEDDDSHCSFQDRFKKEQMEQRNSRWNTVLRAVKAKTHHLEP
# methodDescription: Ion channel panel (IonWorks Barracuda): TRPA1
# Format: cell-based
# conditionNotes: peptide at 0.2 μM; 100% = no change, <100% = inhibition
observedProperty: Activity of TRPA1 with peptide, expressed as a percentage of the reference compound (%)

substance | testResult
32 (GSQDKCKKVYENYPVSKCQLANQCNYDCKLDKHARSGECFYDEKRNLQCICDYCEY) [compound 32] | 130
14 (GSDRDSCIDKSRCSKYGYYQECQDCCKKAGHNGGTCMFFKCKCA) [compound 14] | 106
10 (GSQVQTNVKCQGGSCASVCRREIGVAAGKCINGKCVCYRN) [compound 10] | 108
5 (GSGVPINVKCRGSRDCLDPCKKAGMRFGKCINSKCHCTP) [compound 5] | 119
12 (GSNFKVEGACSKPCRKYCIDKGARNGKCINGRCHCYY) [compound 12] | 129
22 (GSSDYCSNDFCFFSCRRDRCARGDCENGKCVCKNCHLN) [compound 22] | 90
4 (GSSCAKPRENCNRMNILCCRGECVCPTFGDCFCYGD) [compound 4] | 135
34 (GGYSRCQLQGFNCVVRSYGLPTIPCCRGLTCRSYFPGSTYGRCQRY) [compound 34] | 91
11 (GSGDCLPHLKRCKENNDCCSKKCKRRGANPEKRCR) [compound 11] | 100
15 (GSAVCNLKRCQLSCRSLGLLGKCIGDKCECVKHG) [compound 15] | 114
23 (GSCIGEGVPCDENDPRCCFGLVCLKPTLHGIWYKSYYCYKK) [compound 23] | 126
9 (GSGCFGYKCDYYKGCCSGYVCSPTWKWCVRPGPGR) [compound 9] | 131
17 (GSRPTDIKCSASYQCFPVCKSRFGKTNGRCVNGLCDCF) [compound 17] | 176
29 (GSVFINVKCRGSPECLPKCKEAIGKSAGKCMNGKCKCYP) [compound 29] | 89
39 (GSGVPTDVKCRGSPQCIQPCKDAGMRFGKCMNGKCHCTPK) [compound 39] | 136
2 (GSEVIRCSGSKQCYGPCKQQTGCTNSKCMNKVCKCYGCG) [compound 2] | 106
16 (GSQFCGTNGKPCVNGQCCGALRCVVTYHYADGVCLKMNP) [compound 16] | 99
19 (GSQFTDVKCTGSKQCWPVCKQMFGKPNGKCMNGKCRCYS) [compound 19] | 126
3 (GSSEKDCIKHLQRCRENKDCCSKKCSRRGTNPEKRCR) [compound 3] | 105

---

# targetUnderTest: Kv1.3 (Homo sapiens, UniProt P22001)
# Construct: host or cells: HEK293 or CHO
# Sequence (P22001 whole entry): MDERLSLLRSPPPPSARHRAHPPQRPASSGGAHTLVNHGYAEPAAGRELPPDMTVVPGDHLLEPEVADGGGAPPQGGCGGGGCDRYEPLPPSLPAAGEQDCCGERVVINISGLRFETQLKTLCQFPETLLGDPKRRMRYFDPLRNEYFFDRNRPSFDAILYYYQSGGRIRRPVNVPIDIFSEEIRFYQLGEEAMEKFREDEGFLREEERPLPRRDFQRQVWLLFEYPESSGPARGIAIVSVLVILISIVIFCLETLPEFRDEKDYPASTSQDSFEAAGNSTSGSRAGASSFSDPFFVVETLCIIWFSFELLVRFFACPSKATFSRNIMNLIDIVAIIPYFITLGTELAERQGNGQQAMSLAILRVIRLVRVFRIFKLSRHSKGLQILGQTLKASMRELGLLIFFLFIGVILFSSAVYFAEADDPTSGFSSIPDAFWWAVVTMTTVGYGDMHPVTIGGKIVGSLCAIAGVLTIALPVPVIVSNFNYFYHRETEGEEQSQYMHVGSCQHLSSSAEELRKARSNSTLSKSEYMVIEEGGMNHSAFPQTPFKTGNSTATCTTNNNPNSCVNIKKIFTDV
# methodDescription: cell-based
# Format: cell-based
# conditionNotes: peptide at 20 μM; 100% = no change, <100% = inhibition
observedProperty: Activity of Kv1.3 with peptide (percentage of the reference compound) (%)

substance | unitTag | testResult
29 (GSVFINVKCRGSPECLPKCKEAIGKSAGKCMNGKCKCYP) [compound 29] | % | 0
5 (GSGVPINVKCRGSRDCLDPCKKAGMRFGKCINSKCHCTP) [compound 5] | % | 28
9 (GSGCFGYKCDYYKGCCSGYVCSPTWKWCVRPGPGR) [compound 9] | % | 89
34 (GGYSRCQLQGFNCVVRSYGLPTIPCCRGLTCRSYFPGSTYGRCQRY) [compound 34] | % | 100
39 (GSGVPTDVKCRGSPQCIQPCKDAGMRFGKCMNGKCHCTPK) [compound 39] | % | 1
11 (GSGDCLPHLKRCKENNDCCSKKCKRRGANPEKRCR) [compound 11] | % | 87
19 (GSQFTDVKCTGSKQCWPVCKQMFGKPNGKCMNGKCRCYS) [compound 19] | % | −1
17 (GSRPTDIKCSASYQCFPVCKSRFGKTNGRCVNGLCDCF) [compound 17] | % | 6
36 (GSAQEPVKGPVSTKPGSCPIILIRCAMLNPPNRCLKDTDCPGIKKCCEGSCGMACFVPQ) [compound 36] | % | 93

Data provenance: patent US20200262877A1
